Tested on: ADCK3
Construct: gene CABC1
Conditions: concentration: 1 μM,replicates: in singlicate; n = 1;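 also: KINOMEscan kinase panel screen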
Catalogue of %Inh readings, one per entry.

| COMPOUND | SYSTEM_NAME | %Inh |
| --- | --- | --- |
| O=C(NCCNc1ccnc(NCc2ccc(F)cc2)n1)c1cc2ccccc2s1 | ADCK3 | 24% |
| CN(C)CCOc1ccc(-c2cc(-c3c[nH]nc3-c3ccccn3)ccn2)cc1 | ADCK3 | 36% |
| CN(C)CC(O)COc1ccc(Nc2nccc(-c3cnn4nc(N5CCOCC5)ccc34)n2)cc1 (stereo not shown) | ADCK3 | 13% |
| Nc1nc(Nc2ccccc2)cc(-c2ccc3c(N)n[nH]c3c2)n1 | ADCK3 | 21% |
| Cc1cc2cn[nH]c2cc1-c1cccc2c(N)c(C(N)=O)nnc12 | ADCK3 | 0% |
| Cc1ccc(-n2nc(C(C)(C)C)cc2NC(=O)Nc2ccc(OCCN3CCOCC3)c3ccccc23)cc1 | ADCK3 | 21% |
| C[C@@H](Oc1cc(-c2cnn(C3CCNCC3)c2)cnc1N)c1c(Cl)ccc(F)c1Cl | ADCK3 | 5% |

* * *

# %Inh per record follows
System: p38-beta
Construct: gene MAPK11
Settings: concentration: 1 μM,replicates: in singlicate; n = 1
ENDPOINT_LABEL: %Inh (%)

| MOLECULE | VALUE_REPORTED |
| --- | --- |
| CC(C)Nc1cc(-c2ccc3c(N)n[nH]c3c2)nc(N)n1 [GSK2221681] | 0 |
| Cc1n[nH]c2ccc(-c3cc(OC[C@@H](N)Cc4ccccc4)cnc3-c3ccoc3)cc12.O=C(O)C(F)(F)F.O=C(O)C(F)(F)F [GSK507358] | 0 |
| O=C(NCCNc1ccnc(NCc2ccc(F)cc2)n1)c1cc2ccccc2s1 [GSK1379944] | 0 |
| C[C@@H](Oc1cc(-c2cnn(C3CCNCC3)c2)cnc1N)c1c(Cl)ccc(F)c1Cl | 25 |
| Nc1nc(Nc2ccccc2)cc(-c2ccc3c(N)n[nH]c3c2)n1 [GSK2225749] | 0 |
| CC(C)N1C(=O)Cc2cc(Nc3ncc(C(F)(F)F)c(NCc4cccc(S(C)(=O)=O)c4)n3)ccc21 | 2 |
| Cl.Cl.Nc1nc(-c2ccc3c(N)n[nH]c3c2)cc(N2CCCC(NC(=O)c3ccccc3)C2)n1 (centres unmarked) [GSK2286775] | 0 |
| C[C@H]1Oc2cc(cnc2N)-c2c(nn(C)c2C#N)CN(C)C(=O)c2ccc(F)cc21 | 18 |

* * *

Test system: GRK3
Construct: gene ADRBK2
Conditions: concentration: 1 μM,replicates: in singlicate; n = 1
Reported %Inh values are given for each entry in this list.

| COMPOUND | SYSTEM_NAME | %Inh, % |
| --- | --- | --- |
| O=C(NCCNc1ccnc(NCc2ccc(F)cc2)n1)c1cc2ccccc2s1 [GSK1379944] | GRK3 | 34 |
| CC(C)N1C(=O)Cc2cc(Nc3ncc(C(F)(F)F)c(NCc4cccc(S(C)(=O)=O)c4)n3)ccc21 | GRK3 | 4 |
| Cc1cc2cn[nH]c2cc1-c1cccc2c(N)c(C(N)=O)nnc12 | GRK3 | 27 |
| Cc1occc1-c1nc(N)c(OC[C@@H](N)Cc2c[nH]c3ccccc23)cc1-c1cc2c(C)n[nH]c2cn1 [GSK1660450] | GRK3 | 0 |
| CCN(CC)CCOc1ccc(Nc2ncc3cc(-c4c(Cl)cccc4Cl)c(=O)n(C)c3n2)cc1 [SB-601273] | GRK3 | 57 |
| Cc1ccc2c(-c3ccncc3)c(-c3ccc(F)cc3)nn2c1.Cl [GW461484] | GRK3 | 0 |
| Cl.Cl.Nc1nc(-c2ccc3c(N)n[nH]c3c2)cc(N2CCCC(NC(=O)c3ccccc3)C2)n1 (centres unmarked) [GSK2286775] | GRK3 | 19 |
| CN(C)CCOc1ccc(-c2cc(-c3c[nH]nc3-c3ccccn3)ccn2)cc1 [GW835314] | GRK3 | 12 |
| C=CC(=O)Nc1cc2c(Nc3ccc(F)c(Cl)c3)ncnc2cc1OCCCN1CCOCC1 [GW781483] | GRK3 | 3 |
| Cc1n[nH]c2ccc(-c3cc(OC[C@@H](N)Cc4ccccc4)cnc3-c3ccoc3)cc12.O=C(O)C(F)(F)F.O=C(O)C(F)(F)F [GSK507358] | GRK3 | 21 |
| O=C(NCCCN1CCOC1=O)c1cnc(NCc2cc(Cl)ccc2Cl)nc1NC1CCCC1 | GRK3 | 0 |
| Cl.Oc1cc(-c2nc(-c3ccccc3)[nH]c2-c2ccncc2)ccc1Cl [SB-386023] | GRK3 | 0 |
| Cl.Cl.NC[C@H](CC1CCCCC1)NC(=O)c1cc(Br)c(-c2ccnc3[nH]ccc23)s1 [GSK1581427] | GRK3 | 44 |
| Cl.Cl.NC[C@H](Cc1ccc(C(F)(F)F)cc1)NC(=O)c1cc(Br)c(-c2ccnc3[nH]ccc23)s1 [GSK1487252] | GRK3 | 75 |

Where do the numbers come from? From paper PMC5540273.
